The values you see were collected from patent US9763444B2.

Test system: Ae. aegypti
Assay: Minimum Effective Dosage (MED) test on treated cloth, mosquito repellency
Type: in vivo, Aedes aegypti
Details: Table 2; human subject F1; highest concentration 1.500 mg/cm^2
Collected Ae. aegypti Minimum Effective Dosage, F1 values appear next to each entry.

compound="COC(=O)c1ccc(Cl)c2c1C=CC(C)(C)O2 [Compound 14]" result=">1.500 mg/cm^2"

Name the recorded Ae. aegypti Minimum Effective Dosage, F1 of the item CC1(C)C=Cc2c(CO)ccc(Cl)c2O1 [Compound 11] in your answer.
0.011 mg/cm^2

Name the recorded Ae. aegypti Minimum Effective Dosage, F1 of the item CC1(C)C=Cc2cc(CCO)ccc2O1 [Compound 9] in your answer.
0.375 mg/cm^2

Name the recorded Ae. aegypti Minimum Effective Dosage, F1 of the item CC1(C)C=Cc2c(C(=O)O)ccc(Cl)c2O1 [Compound 13] in your answer.
>1.500 mg/cm^2
